assay: In vivo pharmacokinetic test, drug concentration in blood plasma by LC-MS/MS; design: species or system SD rats; conditions: male, SD, rat, plasma, iv, 1 mg/kg, male SD rats, single intravenous 1 mg/kg, Mean; read-out: Cl—pred (converted)
MEASURE: clearance (L/h/kg)
Express it in L/h/kg; write the number only.

Entry CCOc1cccc(Nc2nn(C)c3c2Cc2cc(OCC)c(OCC(N)=O)cc2-3)c1 — recorded clearance = 0.33

###

experiment: In vivo pharmacokinetic test, drug concentration in blood plasma by LC-MS/MS; design: species or system SD rats; details: male, SD, rat, plasma, po, 10 mg/kg, male SD rats, single oral 10 mg/kg, animal 203M; read-out: Vz—F—pred
MEASURE: Vd/F (L/kg)
Hi! Could you send only the number? It should be in L/kg, unit omitted.

Reported Vd/F ( CCOc1cccc(Nc2nn(C)c3c2Cc2cc(OCC)c(OCC(N)=O)cc2-3)c1 ) = 5.57

###

test: In vivo pharmacokinetic test, drug concentration in blood plasma by LC-MS/MS; set-up: species or system SD rats; conditions: SD, rat, plasma, po, 10 mg/kg, SD rats, oral 10 mg/kg, 8 h, Mean
MEASURE: concentration at 8 h (ng/mL)
API: value field is a number in ng/mL; no unit string.

Record CCOc1cccc(Nc2nn(C)c3c2Cc2cc(OCC)c(OCC(N)=O)cc2-3)c1 , field concentration at 8 h: 604

###

assay: in vitro; settings: mouse, liver microsomes, pH 7.47
Below: a set of entries, each annotated with reported microsomal CLint at 1 µM.
The reply should be a number in µL/min/mg, with the unit left off.

COMPOUND_STRING	UNIT	microsomal CLint at 1 µM
CCOc1cccc(Nc2nn(C)c3c2Cc2cc(OCC)c(OCC(=O)NO)cc2-3)c1	µL/min/mg	78

Moving on to the next compound.
compound CCOc1cccc(Nc2nn(C)c3c2Cc2cc(OCC)c(OCC(N)=O)cc2-3)c1 , microsomal CLint at 1 µM observed: 25

###

# Papp B→A at 90 min listing for each entry below
assay: MDCK cell permeability test; conditions: dog, MDCK, Apparent permeability coefficient B→A, 90 min; 2nd line of the compound (condition not given)
# value in ×10⁻⁶ cm/s; strip the unit string

COMPOUND_STRING	UNIT	DATA_VALUE
CCOc1cccc(Nc2nn(C)c3c2Cc2cc(OCC)c(OCC(N)=O)cc2-3)c1	×10⁻⁶ cm/s	18.9

Shifting focus to the compound that follows.
The compound CCOc1cccc(Nc2nn(C)c3c2Cc2cc(OCC)c(OCC(=O)NO)cc2-3)c1 showed Papp B→A at 90 min equal to 6.9

###

assay: In vivo pharmacokinetic test, drug concentration in blood plasma by LC-MS/MS; parameters: species or system SD rats; conditions: male, SD, rat, plasma, iv, 1 mg/kg, male SD rats, single intravenous 1 mg/kg, Mean; read-out: MRTINF—pred
MEASURE: MRT inf
Quote the value and follow it with the unit of measurement.

Field MRT inf (entry CCOc1cccc(Nc2nn(C)c3c2Cc2cc(OCC)c(OCC(N)=O)cc2-3)c1 [LL-01] ) reads 1.18 h

###

assay: In vivo pharmacokinetic test, drug concentration in blood plasma by LC-MS/MS; design: species or system SD rats; details: male, SD, rat, plasma, po, 10 mg/kg, male SD rats, single oral 10 mg/kg, animal 202M; read-out: Vz—F—pred
MEASURE: Vd/F (L/kg)
Number in L/kg, nothing else.

Form: molecule = CCOc1cccc(Nc2nn(C)c3c2Cc2cc(OCC)c(OCC(N)=O)cc2-3)c1 [LL-01] ; Vd/F = 2.4

###

Assay: In vivo pharmacokinetic test, drug concentration in blood plasma by LC-MS/MS
Set-up: species or system SD rats
Settings: male, SD, rat, plasma, iv, 1 mg/kg, SD rats, intravenous 1 mg/kg, 0.5 h, Mean
From the text: 2. Test animal: SD rats, which are 284-304 g before the test, and bought from Shanghai Xipuer-Bikai laboratory animal Co., Ltd. with production license No. SCXK (Hu) 2013-0016, and laboratory animal certificate Nos. 2008001658223 and 2008001658296. […] The content of compound LL-01 in SD rat blood plasma is detected by use of LC-MS/MS method. […]
MEASURE: concentration at 0.5 h (ng/mL)
Return type: number; implicit unit ng/mL.

concentration at 0.5 h measured on CCOc1cccc(Nc2nn(C)c3c2Cc2cc(OCC)c(OCC(N)=O)cc2-3)c1 [LL-01] = 1630

###

experiment: In vivo pharmacokinetic test, drug concentration in blood plasma by LC-MS/MS; design: species or system SD rats; conditions: male, SD, rat, plasma, iv, 1 mg/kg, male SD rats, single intravenous 1 mg/kg, animal 101M; read-out: Cl—pred (converted)
MEASURE: clearance (mL/min/kg)
Unit mL/min/kg implied. Number only.

Kindly note the recorded clearance for CCOc1cccc(Nc2nn(C)c3c2Cc2cc(OCC)c(OCC(N)=O)cc2-3)c1 , which is 5.33

###

assay: In vivo pharmacokinetic test, drug concentration in blood plasma by LC-MS/MS; design: species or system SD rats; conditions: male, SD, rat, plasma, iv, 1 mg/kg, SD rats, intravenous 1 mg/kg, 0.25 h, animal 101M
MEASURE: concentration at 0.25 h (ng/mL)
Reply with just the number (in ng/mL).

Lab book: concentration at 0.25 h of CCOc1cccc(Nc2nn(C)c3c2Cc2cc(OCC)c(OCC(N)=O)cc2-3)c1 noted as 2020

###

Here the recorded microsomal CLint at 1 µM is given for each entry.
assay: in vitro; conditions: dog, microsomes, pH 7.47
The answer is to be given in µL/min/mg; state only the numeric part.

COMPOUND	DATA_VALUE
CCOc1cccc(Nc2nn(C)c3c2Cc2cc(OCC)c(OCC(N)=O)cc2-3)c1 [LL-01]	56

Then this compound:
Consider CCOc1cccc(Nc2nn(C)c3c2Cc2cc(OCC)c(OCC(=O)NO)cc2-3)c1 [LL-02] . Its measured microsomal CLint at 1 µM is 185

###

assay: In vivo pharmacokinetic test, drug concentration in blood plasma by LC-MS/MS; design: species or system SD rats; conditions: male, SD, rat, plasma, po, 10 mg/kg, male SD rats, single oral 10 mg/kg, Mean; read-out: AUCINF—pred
MEASURE: AUC(0-inf) (ng·h/mL)
Provide the reading as a plain figure in ng·h/mL.

// CCOc1cccc(Nc2nn(C)c3c2Cc2cc(OCC)c(OCC(N)=O)cc2-3)c1 [LL-01] : AUC(0-inf) value = 12600

###

assay: In vivo pharmacokinetic test, drug concentration in blood plasma by LC-MS/MS; set-up: species or system SD rats; conditions: male, SD, rat, plasma, po, 10 mg/kg, male SD rats, single oral 10 mg/kg, animal 203M; read-out: MRTINF—pred
MEASURE: MRT inf
The number alone won't do; follow it with the unit.

For this compound ( CCOc1cccc(Nc2nn(C)c3c2Cc2cc(OCC)c(OCC(N)=O)cc2-3)c1 [LL-01] ), measured MRT inf is 5.96 h

###

assay: MDCK cell permeability test; details: dog, MDCK, Apparent permeability coefficient B→A, 90 min; 3rd line of the compound (condition not given)
MEASURE: Papp B→A at 90 min, 10 µM (×10⁻⁶ cm/s)
Numeric only. Scale: ×10⁻⁶ cm/s

Per the records, this compound ( CCOc1cccc(Nc2nn(C)c3c2Cc2cc(OCC)c(OCC(N)=O)cc2-3)c1 ) has Papp B→A at 90 min, 10 µM equal to 19.6

###

Experiment: In vivo pharmacokinetic test, drug concentration in blood plasma by LC-MS/MS
Design: species or system SD rats
Conditions: SD, rat, plasma, po, 10 mg/kg, SD rats, oral 10 mg/kg, 24 h, Mean
Excerpt: 2. Test animal: SD rats, which are 284-304 g before the test, and bought from Shanghai Xipuer-Bikai laboratory animal Co., Ltd. with production license No. SCXK (Hu) 2013-0016, and laboratory animal certificate Nos. 2008001658223 and 2008001658296. […] The content of compound LL-01 in SD rat blood plasma is detected by use of LC-MS/MS method. […]
MEASURE: concentration at 24 h

# concentration at 24 h (compound: CCOc1cccc(Nc2nn(C)c3c2Cc2cc(OCC)c(OCC(N)=O)cc2-3)c1 [LL-01] ) is 26.9 ng/mL

###

Catalogue of IC50 readings, one per entry.
system: human cervical carcinoma (HeLa) cells; assay: Anti-proliferation test (MTT colorimetry); assay type: cell-based; conditions: 72 h
Report as a plain number; the unit nM is understood.

COMPOUND_STRING	IC50 / nM
CCOc1cccc(Nc2nn(C)c3c2Cc2cc(OCC)c(OCC(N)=O)cc2-3)c1	7.4

Turning now to a further molecule:
Record summary for CCOc1cccc(Nc2nn(C)c3c2Cc2cc(OCC)c(OCC(=O)NO)cc2-3)c1 : reported IC50 = 13.2

meta.source: patent US10059674B2
